target: GABBR1 (Homo sapiens, UniProt Q9UBS5); construct: purchased Promega (in-house HiBiT-GPCR construct library, NanoBRET); assay: NanoBRET screen HiBiT-GABBR1 in HEK293; type: binding; conditions: GABBR1; tracer 1μM
Sequence (Q9UBS5 15-961 limits assumed): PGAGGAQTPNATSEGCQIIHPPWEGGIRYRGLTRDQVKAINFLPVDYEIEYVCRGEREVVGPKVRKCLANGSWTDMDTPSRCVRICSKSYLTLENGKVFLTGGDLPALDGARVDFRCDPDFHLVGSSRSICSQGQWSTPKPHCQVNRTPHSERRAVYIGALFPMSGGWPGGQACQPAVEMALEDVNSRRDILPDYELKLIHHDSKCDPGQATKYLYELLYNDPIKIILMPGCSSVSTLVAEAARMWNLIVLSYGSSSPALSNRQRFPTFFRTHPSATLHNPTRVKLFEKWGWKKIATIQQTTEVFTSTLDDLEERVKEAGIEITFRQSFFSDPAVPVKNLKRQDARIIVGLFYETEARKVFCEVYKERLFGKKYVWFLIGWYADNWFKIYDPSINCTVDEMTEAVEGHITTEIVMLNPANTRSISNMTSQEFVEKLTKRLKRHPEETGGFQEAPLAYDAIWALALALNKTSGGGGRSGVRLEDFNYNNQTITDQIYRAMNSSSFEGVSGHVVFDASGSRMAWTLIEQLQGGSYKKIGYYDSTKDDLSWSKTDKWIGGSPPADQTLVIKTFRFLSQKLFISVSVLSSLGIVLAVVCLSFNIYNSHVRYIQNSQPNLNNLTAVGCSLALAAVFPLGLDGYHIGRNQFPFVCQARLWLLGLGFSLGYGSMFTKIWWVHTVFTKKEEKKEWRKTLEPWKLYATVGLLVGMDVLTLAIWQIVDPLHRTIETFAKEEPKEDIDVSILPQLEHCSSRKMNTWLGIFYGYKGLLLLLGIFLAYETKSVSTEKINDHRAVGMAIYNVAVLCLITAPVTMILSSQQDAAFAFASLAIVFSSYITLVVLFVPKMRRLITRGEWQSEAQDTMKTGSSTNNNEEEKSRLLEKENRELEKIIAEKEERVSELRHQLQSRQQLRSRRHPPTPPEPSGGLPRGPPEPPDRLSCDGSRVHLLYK
Examples of molecules with documented NanoBRET Fold Response follow.
Measurement Label: NanoBRET Fold Response

>  <Molecule>
Cc1cc2c(s1)Nc1ccccc1N=C2N1CCN(CCCNC(=O)CCOCCOCCOCCOCCNC(=O)CCc2ccc3n2[B-](F)(F)[N+]2=C(c4ccc[nH]4)C=CC2=C3)CC1 [Olanzapine-a-2-NB590]

>  <Measurement Label>
NanoBRET Fold Response

>  <Number>
1.20

$$$$
>  <Molecule>
CC(C)N(CC[C@H](c1ccccc1)c1cc(CCNC(=O)CCOCCOCCOCCOCCNC(=O)CCc2ccc3n2[B-](F)(F)[N+]2=C(c4ccc[nH]4)C=CC2=C3)ccc1O)C(C)C [Tolterodine-2-NB590]

>  <Measurement Label>
NanoBRET Fold Response

>  <Number>
1.14

$$$$
>  <Molecule>
Cc1nc2n(c(=O)c1CCN1CCC(c3noc4cc(F)ccc34)CC1)CCCC2OC(=O)NCCOCCOCCOCCOCCNC(=O)CCc1ccc2n1[B-](F)(F)[N+]1=C(c3ccc[nH]3)C=CC1=C2 (stereo not drawn) [Risperidone-2-NB590]

>  <Measurement Label>
NanoBRET Fold Response

>  <Number>
0.87

$$$$
